Origin of measurements: patent US5202315A

test system: Escherichia coli ATCC 10536
Recorded Endpoint: MIC (µg/mL)
Write the answer as a number in µg/mL, unit excluded.

Use the examples below as a reference point.
- Molecule: "CC(C)(O/N=C(\\C(=O)NC1C(=O)N2C(C(=O)[O-])=C(CSc3nc(N)cc(N)[n+]3-c3ccccc3)CSC12)c1csc(N)n1)C(=O)O (stereo not drawn) [Compound I-35]"
  MIC / µg/mL: 0.25
- Molecule: "Cc1c(N)nc(SCC2=C(C(=O)[O-])N3C(=O)C(NC(=O)/C(=N\\OC(C)(C)C(=O)O)c4csc(N)n4)C3SC2)[n+](N)c1N (stereo not drawn) [Compound I-34]"
  MIC / µg/mL: 0.063

Now let's try a different one.
Identify measured MIC obtained with Escherichia coli ATCC 10536 for CCO/N=C(\C(=O)NC1C(=O)N2C(C(=O)[O-])=C(CSc3nc(N)cc(N)[n+]3N)CSC12)c1nsc(N)n1 (stereo not drawn) [Compound I-17] .
0.13
